# Test name: Plasma concentration in DBA/1 mouse at 15 mg/kg, po administered once daily for 6 days and measured at 6 hrs
# Type: ADME, organism-based
# Particulars: time 6 day
Experimental readout: concentration at 144 h (ng/mL)
Numbers only, in ng/mL.

Lookup: Using the record for `Cc1nc(NC(=O)NC(=O)C(C)(C)C)ccc1Oc1ccnc(-c2cnn(C)c2)c1` , report its concentration at 144 h.
Found: 1430

----------
# Test name: Plasma protein binding in mouse
# Format: ADME, cell-free
# Particulars: read-out: PPB (converted)
Experimental readout: fraction unbound
Answers are plain numbers.

Lookup: Name the reported fraction unbound value associated with the molecule `Cc1nc(NC(=O)NC(=O)C(C)(C)C)ccc1Oc1ccnc(-c2cnn(C)c2)c1`
Found: 0.041
